All values here come from PubChem BioAssay (NCI).

Tested on: UACC-257 melanoma
EXPERIMENT SUMMARY: NCI-60 one-dose screen, 48 h
TEST SETTINGS: 10 µM unless noted
This is part of a sample that, as a whole, favours compounds with a hit. Of some 83,000 tested, about 20% had one in any assay. Active and inactive are the calls of the source. The calls were made as follows: active = growth percent below 10; inactive = the rest.
Outcome codes: yes (1) for active, no (0) for inactive

{"MOLECULE": "CN1CCN(c2ccc(Nc3nc(NCCCNS(=O)(=O)c4cccc5ccccc45)c4sccc4n3)cc2)CC1", "LABEL CLASS": "yes (1)"}
{"MOLECULE": "O=c1oc2ccc(-c3ccc(F)cc3F)cc2c(=O)n1-c1ccc(Br)cc1F", "LABEL CLASS": "no (0)"}
{"MOLECULE": "CC1=C(C)C(=O)C(Nc2ccc(C)c(C)c2)=C(Br)C1=O", "LABEL CLASS": "no (0)"}
{"MOLECULE": "COc1ccc(C2C(C#N)=C(/N=C/c3ccc(Cl)cc3)Oc3c2sc2c(C)cccc32)cc1 (configuration not stated)", "LABEL CLASS": "no (0)"}
{"MOLECULE": "C#CCn1cc(/C=N/Nc2nc(-c3ccc(Br)cc3)cs2)c2ccccc21", "LABEL CLASS": "no (0)"}
{"MOLECULE": "CCOC(=O)c1c(NC(=O)c2cccc(C(F)(F)F)c2)sc2c1CCC(=O)C2", "LABEL CLASS": "no (0)"}
{"MOLECULE": "C/C(=C(/C)C1CC1CCNC1CCC(NC(=O)OC(C)(C)C)CC1)c1ccccc1 (configuration not stated)", "LABEL CLASS": "no (0)"}
{"MOLECULE": "CN1CCN(c2ccc(Nc3nc(NCCNS(=O)(=O)c4ccc5ccccc5c4)c4sccc4n3)cc2)CC1", "LABEL CLASS": "no (0)"}
{"MOLECULE": "O=c1nc(Nc2ccc([N+](=O)[O-])cc2O)sc2ccccc12", "LABEL CLASS": "no (0)"}
{"MOLECULE": "CC(Nc1ncnc2ccc(-c3cnc(N)nc3)cc12)c1ccccc1 (configuration not stated)", "LABEL CLASS": "no (0)"}
{"MOLECULE": "CC[C@]12C=CCN3CC[C@@]4(c5ccc(OC)cc5N(C)[C@H]4[C@@](O)(C(=O)OC)[C@@H]1OC(=O)CCN1CCc4ccccc4C1)[C@@H]32", "LABEL CLASS": "no (0)"}
{"MOLECULE": "CC(=O)/C(N=Nc1ccc2oc(=O)ccc2c1)=C(\\C)O", "LABEL CLASS": "no (0)"}
{"MOLECULE": "N#Cc1c(-c2cccs2)cc(-c2cnccn2)nc1SCC(=O)N/N=C/c1ccc(Cl)cc1", "LABEL CLASS": "no (0)"}
{"MOLECULE": "NC1CC2(CCN(c3cnc(C(=O)Nc4cc(F)cc5cccnc45)cn3)CC2)C1", "LABEL CLASS": "no (0)"}
{"MOLECULE": "Clc1ccc2[nH]cc(-c3nn4cc(-c5cccnc5)nc4s3)c2c1", "LABEL CLASS": "no (0)"}
{"MOLECULE": "O=C(/C=C/Nc1ccc(S(=O)(=O)Nc2ncccn2)cc1)c1ccc(N=Cc2c(O)[nH]c3ccccc23)cc1", "LABEL CLASS": "no (0)"}
{"MOLECULE": "Cc1ccc(S(=O)(=O)c2nc(-c3ccc(F)cc3)oc2S(C)(=O)=O)cc1", "LABEL CLASS": "no (0)"}
{"MOLECULE": "O=C1Nc2ccccc2/C1=C/c1ccc(OCC(=O)c2ccccc2)cc1", "LABEL CLASS": "no (0)"}
{"MOLECULE": "Cc1cc(NS(=O)(=O)c2ccc(NC(=O)CSc3nc4ccccc4c(=O)n3-c3ccccc3)cc2)no1", "LABEL CLASS": "no (0)"}
{"MOLECULE": "O=C(/C=C/c1cccc(F)c1)c1cccc(OCCCOc2cccc(C(=O)/C=C/c3cccc(F)c3)c2)c1", "LABEL CLASS": "no (0)"}
{"MOLECULE": "CN1CCN(c2ccc(C(=O)/C=C/c3cc(F)cc(C(F)(F)F)c3)cc2)CC1", "LABEL CLASS": "no (0)"}
{"MOLECULE": "COc1ccc2c(c1)c(-c1nn3cc(-c4ccncc4)nc3s1)cn2C", "LABEL CLASS": "no (0)"}
{"MOLECULE": "COc1ccc(-c2cc(-c3ccc(N(C)C)cc3)n3c(n2)nc2ccccc23)cc1", "LABEL CLASS": "no (0)"}
{"MOLECULE": "COc1ccc(C2CC(c3cccc(OCCCCOc4cccc(C5=NN(C(C)=O)C(c6ccc(OC)cc6)C5)c4)c3)=NN2C(C)=O)cc1 (configuration not stated)", "LABEL CLASS": "no (0)"}
{"MOLECULE": "COC(=O)CNC(=O)c1cccc(-c2cc(=O)c3c(OC)c(OC)c(OC)cc3o2)c1", "LABEL CLASS": "no (0)"}
{"MOLECULE": "COc1ccc2c(c1)c(-c1nnc(N)nc1-c1c[nH]c3ccc(F)cc13)cn2C", "LABEL CLASS": "no (0)"}
{"MOLECULE": "O=C1Nc2ccc(F)cc2/C1=C\\C(=O)c1ccc(NS(=O)(=O)c2ccccc2)cc1", "LABEL CLASS": "no (0)"}
{"MOLECULE": "C#C[C@]1(O)CC[C@H]2[C@@H]3CC=C4c5sc(N6CCN(C)CC6)nc5CC[C@]4(C)[C@H]3CC[C@@]21C", "LABEL CLASS": "no (0)"}
{"MOLECULE": "CCCc1cc2cc(-n3nc(CC)c4c3CC(C)(C)CC4=O)cc(NC3CCC(O)CC3)c2c(=O)[nH]1 (configuration not stated)", "LABEL CLASS": "no (0)"}
{"MOLECULE": "CC1=C(C)C(=O)C(Nc2ccc3c(c2)OCCO3)=C(Br)C1=O", "LABEL CLASS": "no (0)"}
{"MOLECULE": "Clc1ccc(CSc2nnc(-c3ccc(Cl)cc3)n2-c2ccccc2)cc1", "LABEL CLASS": "no (0)"}
{"MOLECULE": "O=S(=O)(Oc1ccc(-c2cn3ccsc3n2)cc1)c1cccc(C(F)(F)F)c1", "LABEL CLASS": "no (0)"}
{"MOLECULE": "CCOC(=O)c1ccccc1NC1=C(Cl)C(=O)c2nc(C)ccc2C1=O", "LABEL CLASS": "no (0)"}
{"MOLECULE": "COc1cccc2c1[C@H](OC)[C@]13O[C@@]1(C2=O)[C@H](O)[C@H](C)[C@@](O)(C(=O)[C@@H]1O[C@H]1C)[C@@H]3O", "LABEL CLASS": "yes (1)"}
{"MOLECULE": "CN1CC[C@@H]2[C@@]3(C)CC[C@H](O)C(C)(C)[C@@H]3CC[C@@]2(C)[C@]2(C)CC[C@@]3(CO)CCC(C)(C)C[C@@H]3C12 (some centres not stated)", "LABEL CLASS": "no (0)"}
{"MOLECULE": "COc1ccc(OC)c(CCn2cncc2-c2c[nH]c3ccc(Cl)cc23)c1", "LABEL CLASS": "no (0)"}
{"MOLECULE": "CCCCCN1C(=O)/C(=c2\\sc3n(c2=O)C2C(NN=3)N(CC)C(=O)N2CC)c2cccc(C)c21 (configuration not stated)", "LABEL CLASS": "no (0)"}
